Target: ASK1 kinase (Homo sapiens (Human), UniProt Q99683)
Sequence (Q99683 whole entry): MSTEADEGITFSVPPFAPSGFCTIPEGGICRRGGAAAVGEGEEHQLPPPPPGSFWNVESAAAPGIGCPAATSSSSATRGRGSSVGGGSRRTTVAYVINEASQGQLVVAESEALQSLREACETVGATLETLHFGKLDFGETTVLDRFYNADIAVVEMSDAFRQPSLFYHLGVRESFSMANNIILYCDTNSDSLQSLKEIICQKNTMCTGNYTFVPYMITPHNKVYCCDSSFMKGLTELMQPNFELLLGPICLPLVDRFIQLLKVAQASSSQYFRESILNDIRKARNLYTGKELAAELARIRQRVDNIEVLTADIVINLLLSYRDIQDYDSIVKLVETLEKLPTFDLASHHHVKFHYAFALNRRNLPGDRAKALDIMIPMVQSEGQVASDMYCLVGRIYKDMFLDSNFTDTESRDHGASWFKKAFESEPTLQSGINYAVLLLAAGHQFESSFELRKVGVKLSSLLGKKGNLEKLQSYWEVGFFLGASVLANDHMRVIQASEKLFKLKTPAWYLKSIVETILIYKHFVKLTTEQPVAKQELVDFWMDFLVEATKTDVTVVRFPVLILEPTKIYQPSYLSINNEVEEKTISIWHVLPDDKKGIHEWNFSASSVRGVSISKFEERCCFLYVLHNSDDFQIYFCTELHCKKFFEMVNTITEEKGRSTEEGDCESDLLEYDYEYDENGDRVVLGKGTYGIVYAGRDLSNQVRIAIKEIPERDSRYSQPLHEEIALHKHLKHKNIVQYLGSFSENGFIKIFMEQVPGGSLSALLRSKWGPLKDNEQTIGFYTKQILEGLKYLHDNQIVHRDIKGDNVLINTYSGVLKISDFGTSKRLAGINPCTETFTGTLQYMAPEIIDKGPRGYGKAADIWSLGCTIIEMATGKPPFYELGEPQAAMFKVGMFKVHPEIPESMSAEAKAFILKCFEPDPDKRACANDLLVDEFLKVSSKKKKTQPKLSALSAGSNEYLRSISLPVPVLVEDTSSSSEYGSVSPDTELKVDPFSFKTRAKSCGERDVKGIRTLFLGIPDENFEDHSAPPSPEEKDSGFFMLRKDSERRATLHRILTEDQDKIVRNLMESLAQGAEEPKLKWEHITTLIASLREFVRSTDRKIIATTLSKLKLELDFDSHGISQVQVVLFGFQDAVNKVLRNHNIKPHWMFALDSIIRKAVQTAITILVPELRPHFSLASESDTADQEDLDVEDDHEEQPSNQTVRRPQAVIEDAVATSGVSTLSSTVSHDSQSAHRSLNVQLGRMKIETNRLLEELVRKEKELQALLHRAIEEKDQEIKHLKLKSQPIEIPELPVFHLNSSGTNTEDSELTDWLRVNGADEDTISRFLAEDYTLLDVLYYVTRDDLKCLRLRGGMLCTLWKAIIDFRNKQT
This listing pairs molecules with measured IC50.

Molecule | IC50
Cc1ncc(-c2cc(C(=O)Nc3cccc(-c4nnnn4C(C)C)n3)c(F)cc2C)s1 [Example 67] | 10 to 100 nM
CC(C)n1nnnc1-c1cccc(NC(=O)c2cc(-c3cnn(C4CC4)c3)c(C(F)F)cn2)n1 [Example 18] | 1 to 10 nM
Cc1cnc(C(=O)Nc2cccc(-c3nnnn3[C@H](C)CO)n2)cc1-c1cnc(C2CC2)s1 [Example 43] | 1 to 10 nM
CC(C)n1nnnc1-c1cccc(NC(=O)c2cc(-c3cnn(C4CC4)c3)c(F)cn2)n1 [Example 3] | 10 to 100 nM
CC(C)n1nnnc1-c1nc(NC(=O)c2cc(-c3cnn(C4CC4)c3)c(C(F)F)cn2)cs1 [Example 19] | 1 to 10 nM
Cc1cnc(C(=O)Nc2cccc(-c3nnnn3[C@H](C)CO)n2)cc1-c1cccnc1 [Example 41] | 1 to 10 nM
Cc1cnc(C(=O)Nc2cccc(-c3nnnn3C(C)C)n2)cc1-c1cnc(C2CC2)s1 [Example 42] | 1 to 10 nM
Cc1cnc(C(=O)Nc2cccc(-c3nnnn3C(C)C)n2)cc1-c1cnn(C(F)(F)F)c1 [Example 30] | 10 to 100 nM
Cc1cc(F)c(C(=O)Nc2cccc(-n3nnnc3C(C)C)n2)cc1-c1cnn(C(C)C)c1 [Example 51] | 1 to 10 nM
Cc1cc(F)c(C(=O)Nc2cccc(-c3nnnn3C(C)C)n2)cc1-c1cnn(C2CC2)c1 [Example 46] | 1 to 10 nM
CC(C)n1nnnc1-c1nc(NC(=O)c2cc(-c3cnn(C4CC4)c3)c(N3CCOCC3)cn2)cs1 [Example 10] | 1 to 10 nM
CC(C)n1nnnc1-c1nc(NC(=O)c2cc(-c3cnn(C4CC4)c3)c(N3CCCC3)cn2)cs1 [Example 9] | 1 to 10 nM
Cc1nc(-c2cc(C(=O)Nc3cccc(-c4nnnn4C(C)C)n3)ncc2C)cs1 [Example 40] | 10 to 100 nM
Cc1cnc(C(=O)Nc2cccc(-n3nnnc3C(C)C)n2)cc1-c1cn(C(C)C)cn1 [Example 24] | > 1000 nM
COc1cc(C)c(-c2cnn(C3CC3)c2)cc1C(=O)Nc1cccc(-c2nnnn2[C@H](C)CO)n1 [Example 77] | < 1 nM
Cc1cnc(C(=O)Nc2cccc(-n3nnnc3C(C)C)n2)cc1-c1cnn(C(F)(F)F)c1 [Example 31] | > 1000 nM
Cc1cc(F)c(C(=O)Nc2cccc(-c3nnnn3[C@H](C)CO)n2)cc1-c1cn(C(C)C)cn1 [Example 63] | 10 to 100 nM
Cc1cc(F)c(C(=O)Nc2cccc(-n3nnnc3C(C)C)n2)cc1-c1cnn(C(C)(C)C)c1 [Example 53] | 1 to 10 nM
CC(C)n1nnnc1-c1nc(NC(=O)c2cc(-c3cnn(C4CC4)c3)c(C(F)(F)F)cn2)cs1 [Example 15] | 10 to 100 nM
Cc1cc(F)c(C(=O)Nc2cccc(-c3nnnn3C(C)C)n2)cc1-c1cnn(C(C)C)c1 [Example 49] | 1 to 10 nM
Cc1cnc(C(=O)Nc2cccc(-c3nnnn3[C@H](C)CO)n2)cc1-c1ccn(C(C)C)n1 [Example 35] | 1 to 10 nM
Cc1cc(F)c(C(=O)Nc2cccc(-c3nnnn3[C@@H]3CCOC3)n2)cc1-c1cnn(C2CC2)c1 [Example 82] | 1 to 10 nM
C[C@H](CO)n1nnnc1-c1cccc(NC(=O)c2cc(-c3cnn(C4CC4)c3)c(C(F)(F)F)cn2)n1 [Example 16] | 1 to 10 nM
COc1cc(C)c(-c2ccn(C(C)C)n2)cc1C(=O)Nc1cccc(-c2nnnn2[C@H](C)CO)n1 [Example 80] | < 1 nM
Cc1cc(F)c(C(=O)Nc2cccc(-c3nnnn3[C@H]3CCC[C@@H]3O)n2)cc1-c1cnn(C2CC2)c1 [Example 83] | 1 to 10 nM
Cc1cc(F)c(C(=O)Nc2cccc(-c3nnnn3C(C)C)n2)cc1-c1ccc(C2CC2)s1 [Example 69] | 10 to 100 nM
COc1cc(C)c(-c2ccn(C(C)C)n2)cc1C(=O)Nc1cccc(-n2nnnc2C(C)C)n1 [Example 79] | 10 to 100 nM
Cc1cnc(C(=O)Nc2cccc(-c3nnnn3[C@H](C)CO)n2)cc1-c1cnn(C(C)C)c1 [Example 28] | 1 to 10 nM
CC(C)n1nnnc1-c1cccc(NC(=O)c2cc(-c3cnn(C4CC4)c3)c(C(F)(F)F)cn2)n1 [Example 14] | 10 to 100 nM
CC(C)n1nnnc1-c1nc(NC(=O)c2cc(-c3cnn(C4CC4)c3)c(N3CCN(C)CC3)cn2)cs1 [Example 12] | 1 to 10 nM
CC(C)n1nnnc1-c1cccc(NC(=O)c2cc(-c3cnn(C4CC4)c3)c(N3CCCC3)cn2)n1 [Example 4] | 10 to 100 nM
